Documented zone of inhibition at 100 µg/mL across a set of compounds
System: Staphylococcus epidermidis
Experiment: Antimicrobial activity against Staphylococcus epidermidis MTCCB 1824 at 100 ug/mL after 16 to 20 hrs by disk diffusion method
Format: functional
Details: read-out: DIZ
Kindly provide the numeric value in mm only, without the unit symbol.

CCOP1(=O)Sc2nnc(C)c(=O)n2NC1c1ccc(Cl)cc1 (configuration not stated) | 23
Cc1nnc(N)n(N)c1=O | 15
Cc1nnc2n(c1=O)NP(=O)(c1ccccc1)S2 (configuration not stated) | 17
Cc1nnc(S)n(N)c1=O | 14
Cc1nnc2n(c1=O)N=C(c1ccccc1)CP(c1ccccc1)(c1ccccc1)(c1ccccc1)S2 | 19
Cc1nnc(NN)n(N)c1=O | 15

Exercise: Given CC1=Nn2c(nnc(C)c2=O)SP1(c1ccccc1)(c1ccccc1)c1ccccc1 , state its recorded zone of inhibition at 100 µg/mL.
Key: 19

----------
Documented LC50 at 24 h across a set of molecules
Assay: Toxicity against Artemia salina larvae after 24 hrs
Type: organism-based
Conditions: in vivo
Kindly provide the numeric value in µg/mL only, without the unit symbol.

CCOP1(=O)Sc2nnc(C)c(=O)n2NC1c1ccc(Cl)cc1 (configuration not stated) | 13.8

Exercise: Given Cc1nnc2n(c1=O)NP(=O)(c1ccccc1)S2 (configuration not stated) , state its recorded LC50 at 24 h.
Key: 7.85

----------
Tested on: Escherichia coli
Experiment: Antimicrobial activity against Escherichia coli MTCCB 1652 at 100 ug/mL after 16 to 20 hrs by disk diffusion method
Format: functional
Conditions: read-out: DIZ
Documented zone of inhibition at 100 µg/mL across a set of molecules
Kindly provide the numeric value in mm only, without the unit symbol.

CC1=Nn2c(nnc(C)c2=O)SP1(c1ccccc1)(c1ccccc1)c1ccccc1 | 19
CCOP1(=O)Sc2nnc(C)c(=O)n2NC1c1ccc(Cl)cc1 (configuration not stated) | 15
Cc1nnc(NN)n(N)c1=O | 15
Cc1nnc2n(c1=O)N=C(c1ccccc1)CP(c1ccccc1)(c1ccccc1)(c1ccccc1)S2 | 16
Cc1nnc(N)n(N)c1=O | 14

Exercise: Request body: readout zone of inhibition at 100 µg/mL, system Escherichia coli, query Cc1nnc(S)n(N)c1=O . Return the value.
Key: 14

Exercise: Request body: readout zone of inhibition at 100 µg/mL, system Escherichia coli, query Cc1nnc2n(c1=O)NP(=O)(c1ccccc1)S2 (configuration not stated) . Return the value.
Key: 21

----------
Test system: Staphylococcus epidermidis
Test: Antimicrobial activity against Staphylococcus epidermidis MTCCB 1824 after 24 hrs by tube dilution technique
Type: functional
Conditions: MTCCB 1824, 24 h
Documented MIC across a set of compounds
Kindly provide the numeric value in µg/mL only, without the unit symbol.

Exercise: Given Cc1nnc(NN)n(N)c1=O , state its recorded MIC.
Key: 50

Exercise: Given CCOP1(=O)Sc2nnc(C)c(=O)n2NC1c1ccc(Cl)cc1 (stereo not drawn) , state its recorded MIC.
Key: 6.25

Exercise: Given CN(C)[C@@H]1C(O)=C(C(N)=O)C(=O)[C@@]2(O)C(O)=C3C(=O)c4c(O)cccc4[C@@](C)(O)[C@H]3C[C@@H]12 , state its recorded MIC.
Key: 6.25

Exercise: Given CC1=Nn2c(nnc(C)c2=O)SP1(c1ccccc1)(c1ccccc1)c1ccccc1 , state its recorded MIC.
Key: 25

Exercise: Given Cc1nnc(N)n(N)c1=O , state its recorded MIC.
Key: 25

Exercise: Given Cc1nnc2n(c1=O)NP(=O)(c1ccccc1)S2 (stereo not drawn) , state its recorded MIC.
Key: 25

Exercise: Given Cc1nnc2n(c1=O)N=C(c1ccccc1)CP(c1ccccc1)(c1ccccc1)(c1ccccc1)S2 , state its recorded MIC.
Key: 12.5

Exercise: Given Cc1nnc(S)n(N)c1=O , state its recorded MIC.
Key: 50
